molecular target: PAK2 (Homo sapiens); construct: purchased Eurofins Pharma Discovery Services (KinaseProfiler; Cerep BioPrint panel); test: kinase selectivity panel; type: biochemical; conditions: read-out: percentage of control activity (POC), PAK2
Sequence (Q13177 whole entry): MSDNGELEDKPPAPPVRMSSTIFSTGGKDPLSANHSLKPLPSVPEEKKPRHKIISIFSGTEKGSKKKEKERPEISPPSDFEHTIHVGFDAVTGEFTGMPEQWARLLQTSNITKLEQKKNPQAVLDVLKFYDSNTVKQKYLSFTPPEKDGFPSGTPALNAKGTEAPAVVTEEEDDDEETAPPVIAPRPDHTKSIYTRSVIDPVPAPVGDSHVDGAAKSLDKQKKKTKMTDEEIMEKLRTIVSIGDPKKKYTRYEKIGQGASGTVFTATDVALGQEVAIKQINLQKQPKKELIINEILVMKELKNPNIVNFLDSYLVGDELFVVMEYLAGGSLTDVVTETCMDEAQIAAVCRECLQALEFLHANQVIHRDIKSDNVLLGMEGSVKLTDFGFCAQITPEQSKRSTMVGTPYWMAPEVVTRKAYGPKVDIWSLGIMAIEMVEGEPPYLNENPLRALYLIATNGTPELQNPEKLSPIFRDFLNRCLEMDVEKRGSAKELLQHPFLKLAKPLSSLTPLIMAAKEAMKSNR
metric_name: remaining activity at 10 µM (%)
Numbers only, in %.

- compound: "CS(=O)(=O)N1CCN(c2ccc(Nc3ncc(C(N)=O)c(NC4CC4)n3)cc2)CC1"
  readout_unit: "%"
  remaining activity at 10 µM: 24
- compound: "Cc1ccc(C(=O)NCC2CC2)cc1-c1ccc2c(c1)NC(=O)C21CCCC1"
  readout_unit: "%"
  remaining activity at 10 µM: 89
- compound: "COc1c(NC(=O)c2ccc(C)c(-c3nnc4c(NCC(C)(C)C)nccn34)c2)cc(C(C)(C)C)cc1NS(C)(=O)=O [compound 7, reference compound]"
  readout_unit: "%"
  remaining activity at 10 µM: 96

Hi, could you look up remaining activity at 10 µM for each item in my list?
1. CC(C)(C)N1CCC(c2cc(-c3ccc(F)cc3Cl)c3cc[n+]([O-])c(-c4c(Cl)cccc4Cl)c3n2)CC1
2. Cn1cc(-c2cccc(-c3nc(C(=O)NC4C5CC6CC4CC(O)(C6)C5)c(N)nc3N)c2)cn1 (centres unmarked)

1: 111; 2: 87
